Provenance of the data: paper PMC8699473

measurement protocol: Short-term stability in spiked pooled human plasma (bench-top, 4 °C, 56 °C)
cond: validation standard 2xLLOV
The entries below come with measured Short-time stability (1h, 56°C) Accuracy [%] values attached.
metric: Short-time stability (1h, 56°C) Accuracy [%] (%)

1) Cc1ccc(C(=O)Nc2ccc(CN3CCN(C)CC3)c(C(F)(F)F)c2)cc1C#Cc1cnc2cccnn12
48.3
2) COC(=O)N[C@@H](C)CNc1nccc(-c2cn(C(C)C)nc2-c2cc(Cl)cc(NS(C)(=O)=O)c2F)n1
54.9
3) Cc1cc(Nc2ncc(Cl)c(Nc3ccccc3S(=O)(=O)C(C)C)n2)c(OC(C)C)cc1C1CCNCC1
39.7
4) CN(C)C/C=C/C(=O)Nc1cc2c(Nc3ccc(F)c(Cl)c3)ncnc2cc1O[C@H]1CCOC1
30.4
